Quick reference for IC50 among some compounds
- MEASURED TARGET: EGFR exon 20 FQEA Ins A763_V764 (Ba/F3 cells) (Homo sapiens, UniProt P00533, INS763FQEA)
- Sequence (P00533 with tags, fused parts or gaps INS763FQEA): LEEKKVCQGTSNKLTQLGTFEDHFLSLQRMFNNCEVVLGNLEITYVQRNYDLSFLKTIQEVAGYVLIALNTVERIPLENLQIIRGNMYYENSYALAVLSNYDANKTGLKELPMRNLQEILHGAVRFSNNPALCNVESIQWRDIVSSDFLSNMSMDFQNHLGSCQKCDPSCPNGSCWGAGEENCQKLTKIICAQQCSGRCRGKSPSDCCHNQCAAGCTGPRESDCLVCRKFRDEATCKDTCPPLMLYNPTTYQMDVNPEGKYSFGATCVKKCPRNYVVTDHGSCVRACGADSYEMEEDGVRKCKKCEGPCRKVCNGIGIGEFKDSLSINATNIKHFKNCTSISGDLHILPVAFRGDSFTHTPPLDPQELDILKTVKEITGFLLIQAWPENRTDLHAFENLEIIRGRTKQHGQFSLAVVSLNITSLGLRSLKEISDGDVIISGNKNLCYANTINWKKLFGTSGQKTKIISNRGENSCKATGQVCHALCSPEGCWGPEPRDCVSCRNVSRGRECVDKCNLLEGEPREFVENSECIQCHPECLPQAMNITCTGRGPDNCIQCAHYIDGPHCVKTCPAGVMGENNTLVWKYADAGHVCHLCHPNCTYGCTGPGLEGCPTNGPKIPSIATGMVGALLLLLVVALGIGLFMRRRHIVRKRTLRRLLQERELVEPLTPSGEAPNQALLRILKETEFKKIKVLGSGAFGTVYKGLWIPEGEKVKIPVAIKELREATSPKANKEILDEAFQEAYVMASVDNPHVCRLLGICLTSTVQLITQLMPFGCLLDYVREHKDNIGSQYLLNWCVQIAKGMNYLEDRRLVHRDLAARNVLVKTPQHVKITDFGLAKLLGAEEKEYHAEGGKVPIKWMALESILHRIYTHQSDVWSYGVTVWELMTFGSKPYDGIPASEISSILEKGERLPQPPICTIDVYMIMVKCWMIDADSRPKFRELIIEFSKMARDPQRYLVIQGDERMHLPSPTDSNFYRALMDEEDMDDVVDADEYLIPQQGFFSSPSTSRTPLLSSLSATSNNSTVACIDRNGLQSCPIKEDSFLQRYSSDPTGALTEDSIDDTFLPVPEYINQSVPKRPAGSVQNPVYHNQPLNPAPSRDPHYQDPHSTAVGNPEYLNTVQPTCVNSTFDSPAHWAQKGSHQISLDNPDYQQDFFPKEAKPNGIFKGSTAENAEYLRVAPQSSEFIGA
- ASSAY PROTOCOL: Inhibitor activity on EGFR-dependent cell growth (CellTiter-Glo, 72 h), Ba/F3 EGFR exon 20 FQEA Ins
- CONDITION CONTEXT: read-out: BaF3 FQEA IC50

>  <COMPOUND>
COc1ncc2nccc(-c3[nH]c4c(c3Nc3cccc(Cl)c3C(F)(F)F)C(=O)NCC4)c2n1

>  <MEASURED TARGET>
EGFR exon 20 FQEA Ins A763_V764 (Ba/F3 cells) (Homo sapiens, UniProt P00533, INS763FQEA)

>  <IC50>
> 1000 nM

$$$$
>  <COMPOUND>
Cc1cccc(F)c1Nc1c(-c2ccnc(N)n2)[nH]c2c1C(=O)NCC2

>  <MEASURED TARGET>
EGFR exon 20 FQEA Ins A763_V764 (Ba/F3 cells) (Homo sapiens, UniProt P00533, INS763FQEA)

>  <IC50>
> 1000 nM

$$$$
>  <COMPOUND>
COc1c(F)cccc1Nc1c(-c2ccnc(C)n2)[nH]c2c1C(=O)NCC2C[C@@H]1COCCO1 (single isomer, unassigned)

>  <MEASURED TARGET>
EGFR exon 20 FQEA Ins A763_V764 (Ba/F3 cells) (Homo sapiens, UniProt P00533, INS763FQEA)

>  <IC50>
< 100 nM

$$$$
>  <COMPOUND>
COc1cc2nccc(-c3[nH]c4c(c3Nc3cccc(Cl)c3OC)C(=O)NCC4)c2nc1OC

>  <MEASURED TARGET>
EGFR exon 20 FQEA Ins A763_V764 (Ba/F3 cells) (Homo sapiens, UniProt P00533, INS763FQEA)

>  <IC50>
< 100 nM

$$$$
>  <COMPOUND>
COc1c(F)cccc1Nc1c(-c2nnc3cc(C)ccn23)[nH]c2c1C(=O)NCC2

>  <MEASURED TARGET>
EGFR exon 20 FQEA Ins A763_V764 (Ba/F3 cells) (Homo sapiens, UniProt P00533, INS763FQEA)

>  <IC50>
> 1000 nM

$$$$
>  <COMPOUND>
COc1c(F)cccc1Nc1c(-c2ccnc(N)n2)[nH]c2c1C(=O)NCC2

>  <MEASURED TARGET>
EGFR exon 20 FQEA Ins A763_V764 (Ba/F3 cells) (Homo sapiens, UniProt P00533, INS763FQEA)

>  <IC50>
100 to 1000 nM

$$$$
>  <COMPOUND>
Nc1nccc(-c2[nH]c3c(c2Nc2ccccc2)C(=O)NCC3)n1

>  <MEASURED TARGET>
EGFR exon 20 FQEA Ins A763_V764 (Ba/F3 cells) (Homo sapiens, UniProt P00533, INS763FQEA)

>  <IC50>
< 100 nM

$$$$
>  <COMPOUND>
COc1ccc2nccc(-c3[nH]c4c(c3Nc3cccc(Cl)c3OC)C(=O)NCC4)c2c1

>  <MEASURED TARGET>
EGFR exon 20 FQEA Ins A763_V764 (Ba/F3 cells) (Homo sapiens, UniProt P00533, INS763FQEA)

>  <IC50>
> 1000 nM

$$$$
>  <COMPOUND>
COc1nn(C)cc1Nc1nccc(-c2[nH]c3c(c2Nc2cccc(Cl)c2OC)C(=O)NCC3)n1

>  <MEASURED TARGET>
EGFR exon 20 FQEA Ins A763_V764 (Ba/F3 cells) (Homo sapiens, UniProt P00533, INS763FQEA)

>  <IC50>
< 100 nM

$$$$
>  <COMPOUND>
COc1c(Cl)cccc1Nc1c(-c2ccnc3ccc(OCC4CN(C)C4)nc23)[nH]c2c1C(=O)NCC2

>  <MEASURED TARGET>
EGFR exon 20 FQEA Ins A763_V764 (Ba/F3 cells) (Homo sapiens, UniProt P00533, INS763FQEA)

>  <IC50>
100 to 1000 nM

$$$$
>  <COMPOUND>
COc1ncc2nccc(-c3[nH]c4c(c3Nc3cccc(F)c3OC)C(=O)NCC43CC3)c2n1

>  <MEASURED TARGET>
EGFR exon 20 FQEA Ins A763_V764 (Ba/F3 cells) (Homo sapiens, UniProt P00533, INS763FQEA)

>  <IC50>
< 100 nM

$$$$
>  <COMPOUND>
Cc1ccc(F)cc1Nc1c(-c2ccnc(N)n2)[nH]c2c1C(=O)NCC2

>  <MEASURED TARGET>
EGFR exon 20 FQEA Ins A763_V764 (Ba/F3 cells) (Homo sapiens, UniProt P00533, INS763FQEA)

>  <IC50>
100 to 1000 nM

$$$$
>  <COMPOUND>
COc1c(Cl)cccc1Nc1c(-c2ccncc2F)[nH]c2c1C(=O)NC[C@H]2CC(C)(C)O

>  <MEASURED TARGET>
EGFR exon 20 FQEA Ins A763_V764 (Ba/F3 cells) (Homo sapiens, UniProt P00533, INS763FQEA)

>  <IC50>
< 100 nM

$$$$
>  <COMPOUND>
COc1c(C)cccc1Nc1c(-c2ccnc(N)n2)[nH]c2c1C(=O)NCC2

>  <MEASURED TARGET>
EGFR exon 20 FQEA Ins A763_V764 (Ba/F3 cells) (Homo sapiens, UniProt P00533, INS763FQEA)

>  <IC50>
100 to 1000 nM

$$$$
>  <COMPOUND>
COc1ccc2nccc(-c3[nH]c4c(c3Nc3cccc(Cl)c3OC)C(=O)NC[C@@H]4C)c2n1 [310b]

>  <MEASURED TARGET>
EGFR exon 20 FQEA Ins A763_V764 (Ba/F3 cells) (Homo sapiens, UniProt P00533, INS763FQEA)

>  <IC50>
< 100 nM

$$$$
>  <COMPOUND>
COc1c(Cl)cccc1Nc1c(-c2ccnc(NCC(F)(F)F)n2)[nH]c2c1C(=O)NCC2

>  <MEASURED TARGET>
EGFR exon 20 FQEA Ins A763_V764 (Ba/F3 cells) (Homo sapiens, UniProt P00533, INS763FQEA)

>  <IC50>
> 1000 nM

$$$$
>  <COMPOUND>
COc1c(Cl)cccc1Nc1c(-c2ccnc3c2OCCN3)[nH]c2c1C(=O)NCC2

>  <MEASURED TARGET>
EGFR exon 20 FQEA Ins A763_V764 (Ba/F3 cells) (Homo sapiens, UniProt P00533, INS763FQEA)

>  <IC50>
100 to 1000 nM

$$$$
>  <COMPOUND>
COc1c(Cl)cccc1Nc1c(-c2ccnc(NCc3ccn(C)n3)n2)[nH]c2c1C(=O)NCC2

>  <MEASURED TARGET>
EGFR exon 20 FQEA Ins A763_V764 (Ba/F3 cells) (Homo sapiens, UniProt P00533, INS763FQEA)

>  <IC50>
100 to 1000 nM

$$$$
>  <COMPOUND>
COc1c(Cl)cccc1Nc1c(-c2ccnc3cnc(OCCN(C)C)nc23)[nH]c2c1C(=O)NCC2

>  <MEASURED TARGET>
EGFR exon 20 FQEA Ins A763_V764 (Ba/F3 cells) (Homo sapiens, UniProt P00533, INS763FQEA)

>  <IC50>
100 to 1000 nM

$$$$
>  <COMPOUND>
C=CC(=O)N1CCC2(CC1)CNC(=O)c1c2[nH]c(-c2ccncc2F)c1Nc1cc(F)cc(Cl)c1OC

>  <MEASURED TARGET>
EGFR exon 20 FQEA Ins A763_V764 (Ba/F3 cells) (Homo sapiens, UniProt P00533, INS763FQEA)

>  <IC50>
< 100 nM

$$$$
>  <COMPOUND>
COCC[C@H]1CNC(=O)c2c1[nH]c(-c1ccncc1F)c2Nc1cccc(F)c1OC(F)F

>  <MEASURED TARGET>
EGFR exon 20 FQEA Ins A763_V764 (Ba/F3 cells) (Homo sapiens, UniProt P00533, INS763FQEA)

>  <IC50>
100 to 1000 nM

$$$$
>  <COMPOUND>
COc1c(Cl)cccc1Nc1c(-c2ccnc3ccc(OC4(C)CC4)nc23)[nH]c2c1C(=O)NC[C@H]2C (single isomer, unassigned)

>  <MEASURED TARGET>
EGFR exon 20 FQEA Ins A763_V764 (Ba/F3 cells) (Homo sapiens, UniProt P00533, INS763FQEA)

>  <IC50>
< 100 nM

$$$$
>  <COMPOUND>
COc1c(Cl)cccc1Nc1c(-c2ccnc3ccc(OC4(C)CC4)nc23)[nH]c2c1C(=O)NCC2

>  <MEASURED TARGET>
EGFR exon 20 FQEA Ins A763_V764 (Ba/F3 cells) (Homo sapiens, UniProt P00533, INS763FQEA)

>  <IC50>
< 100 nM

$$$$
>  <COMPOUND>
COc1c(Cl)cccc1Nc1c(-c2ccnc(Nc3cnnn3C)n2)[nH]c2c1C(=O)NCC2

>  <MEASURED TARGET>
EGFR exon 20 FQEA Ins A763_V764 (Ba/F3 cells) (Homo sapiens, UniProt P00533, INS763FQEA)

>  <IC50>
< 100 nM

$$$$
>  <COMPOUND>
COc1c(F)cccc1Nc1c(-c2ccncc2F)[nH]c2c1C(=O)NCC2

>  <MEASURED TARGET>
EGFR exon 20 FQEA Ins A763_V764 (Ba/F3 cells) (Homo sapiens, UniProt P00533, INS763FQEA)

>  <IC50>
100 to 1000 nM

$$$$
>  <COMPOUND>
COc1c(Cl)cccc1Nc1c(-c2ccncn2)[nH]c2c1C(=O)NCC2

>  <MEASURED TARGET>
EGFR exon 20 FQEA Ins A763_V764 (Ba/F3 cells) (Homo sapiens, UniProt P00533, INS763FQEA)

>  <IC50>
100 to 1000 nM

$$$$
>  <COMPOUND>
COc1ncc2nccc(-c3[nH]c4c(c3Nc3cccc(F)c3C)C(=O)NCC4)c2n1

>  <MEASURED TARGET>
EGFR exon 20 FQEA Ins A763_V764 (Ba/F3 cells) (Homo sapiens, UniProt P00533, INS763FQEA)

>  <IC50>
< 100 nM

$$$$
>  <COMPOUND>
CC#Cc1cccc(Nc2c(-c3ccnc(N)n3)[nH]c3c2C(=O)NCC3)c1OC

>  <MEASURED TARGET>
EGFR exon 20 FQEA Ins A763_V764 (Ba/F3 cells) (Homo sapiens, UniProt P00533, INS763FQEA)

>  <IC50>
> 1000 nM

$$$$
>  <COMPOUND>
COC(=O)N1CCC2(CC1)CNC(=O)c1c2[nH]c(-c2ccncc2F)c1Nc1cccc(Cl)c1OC

>  <MEASURED TARGET>
EGFR exon 20 FQEA Ins A763_V764 (Ba/F3 cells) (Homo sapiens, UniProt P00533, INS763FQEA)

>  <IC50>
100 to 1000 nM

$$$$
>  <COMPOUND>
COCC[C@@H]1CNC(=O)c2c1[nH]c(-c1ccncc1F)c2Nc1cccc(Cl)c1OC

>  <MEASURED TARGET>
EGFR exon 20 FQEA Ins A763_V764 (Ba/F3 cells) (Homo sapiens, UniProt P00533, INS763FQEA)

>  <IC50>
< 100 nM

$$$$
>  <COMPOUND>
CCO[C@@H](C)c1ccc2nccc(-c3[nH]c4c(c3Nc3cccc(Cl)c3OC)C(=O)NCC4)c2n1

>  <MEASURED TARGET>
EGFR exon 20 FQEA Ins A763_V764 (Ba/F3 cells) (Homo sapiens, UniProt P00533, INS763FQEA)

>  <IC50>
< 100 nM

$$$$
